Tested on: KM12 colon
Assay: NCI-60 one-dose screen, 48 h (100 = growth as untreated, 0 = no growth, -100 = all killed)
Settings: 10 µM unless noted
This is part of a sample that, as a whole, favours compounds with a hit. Of some 83,000 tested, about 20% had one in any assay.

| compound | test-target | result-unit | growth |
| --- | --- | --- | --- |
| CCNC(=O)N1CCc2c(Br)c3c(c(OC)c2C1Cc1ccc(OC)cc1)OCO3 (centres undefined) | KM12 colon | % | 22 |
| COc1cc(/C=C2\C(=O)N(CCCOc3cc(O)c4c(=O)cc(-c5ccccc5)oc4c3)c3ccccc32)cc(OC)c1O | KM12 colon | % | 62.2 |
| CCCCCCCCCCOC(=O)c1nn(C(C)=O)c2cc(C)c(C)cc12 | KM12 colon | % | 104 |
| COC(=O)/C=C1/SC(=NCc2ccccc2)N(CCc2c[nH]c3ccccc23)C1=O | KM12 colon | % | 70.4 |
| O=C1/C(=C/c2ccccn2)SC(=S)N1N1CCOCC1 | KM12 colon | % | 103 |
| COc1ccc2c(c1)CC[C@@H]1[C@@H]2CC[C@]2(C)c3c(cc(C#N)c4c3sc3ccccc34)C[C@@H]12 | KM12 colon | % | 109 |
| COC(=O)c1ccc2c(c1)c1c(C)c3cnccc3c(C)c1n2C | KM12 colon | % | 1.9 |
| COC(=O)c1nc(-c2ccccc2)oc1S(=O)(=O)N1CCCC(C)C1 (centres undefined) | KM12 colon | % | 97.7 |
| C=CN(C(=O)N1CCN(c2cc3c(cc2F)c(=O)c(C(=O)O)cn3C2CC2)CC1)c1nc(-c2ccccc2)cs1 | KM12 colon | % | 104 |

---

Tested on: T-47D breast
Experiment: NCI-60 one-dose screen, 48 h (100 = growth as untreated, 0 = no growth, -100 = all killed)
Conditions: 10 µM unless noted
About 83,000 compounds went through this panel and 20% of them were active in at least one assay; those are over-represented in the sample as a whole.
true (1) if growth is below 60%. false (0) if not; exact matches included in false (0).

| compound | group |
| --- | --- |
| CCOC(=O)c1[nH]cc2c1CCc1sc(Nc3ccccn3)nc1-2 | true (1) |
| Cc1cc(Cl)nc(N2CCN(CCNc3ccnc4cc(Cl)ccc34)CC2)n1 | true (1) |
| CN1CCN(c2ccc(NC3=CC(=O)c4ncncc4C3=O)cc2)CC1 | true (1) |
| Cc1[nH]c(C(=O)Nc2ccccc2OC2CCN(CCN3CCOCC3)CC2)c(Cl)c1Cl | false (0) |
| COCCn1cc(-c2nc(-c3cc4cccnc4n3C)cs2)c2ccccc21 | true (1) |
| O=C(Nc1cccnc1Nc1ccccc1)c1cn(Cc2cccc(Oc3ccccc3)c2)nn1 | false (0) |
| COC(=O)Cn1c2c(c3c(OC)cccc31)C(=O)c1ccccc1-2 | false (0) |
| Oc1c(CN2CCC(N3CCOCC3)CC2)cc(Cc2cc(CN3CCC(N4CCOCC4)CC3)c(O)c3ncccc23)c2cccnc12 | true (1) |
| COc1ccc(C2CC(n3ccnc3)c3cc(OC)c(OC)c(OC)c32)cc1O (stereo not given) | false (0) |

---

System: A549/ATCC NSCLC
Test: NCI-60 one-dose screen, 48 h
Conditions: 10 µM unless noted
The panel holds about 83,000 compounds, 20% with a hit somewhere; the sample as a whole holds those more often. Active and inactive are the calls of the source. How the source made its calls: active means growth percent below 10; inactive means the rest.
Labels: active, inactive

| compound | group |
| --- | --- |
| Cc1[nH]c(C(=O)Nc2ccccc2OC2CCN(CCN3CCOCC3)CC2)c(Cl)c1Cl | inactive |
| O=C(Nc1cc(Cl)cc(Cl)c1)Oc1c(Cl)c(Cl)c(Cl)c(Cl)c1Cl | inactive |
| CCOC(=O)c1[nH]cc2c1CCc1sc(Nc3ccccn3)nc1-2 | inactive |
| CCCCCc1ccc(S(=O)(=O)Nc2cc(-c3csc(NC(C)=O)n3)ccc2N2CCN(C)CC2)cc1 | inactive |
| COc1ccccc1S(=O)(=O)Nc1ccc2c3c(cc(CCC(=O)NCCCCNc4cccc5c4C(=O)N(C4CCC(=O)NC4=O)C5=O)cc13)C(=O)N2C (stereo not given) | inactive |
| CCCN(CCSSCCNc1nc(N(C)O)nc(N(C)O)n1)c1nc(N(C)O)nc(N(C)O)n1 | inactive |
| COC(=O)[C@@]12CC=C(C)[C@]3(C[C@H](c4ccoc4)OC3=O)[C@H]1C=C[C@@H](O)[C@@]2(O)C(=O)OC | inactive |
| O=C1C=CC2(O)OC/C(=C\c3ccccc3)C(O)=C2C1=O (stereo not given) | inactive |
| CC(C)(C)CC(C)(C)Nc1c(-c2c(O)c3ccccc3oc2=O)nc2sc3ccccc3n12 | inactive |
| COC(=O)/C=C1/SC(=NCc2ccccc2)N(CCc2c[nH]c3ccccc23)C1=O | inactive |
| CN(C)CCCC1(c2ccc(F)cc2)OCc2cc(-c3csc4ccccc34)ccc21 (stereo not given) | inactive |
| CCN1C(=O)N(CC)C2C1NN=c1s/c(=C\c3ccc(OC)cc3)c(=O)n12 (stereo not given) | inactive |
| Cc1ccc(S(=O)(=O)OC[C@]23CCC(C)(C)C[C@H]2C2=CC[C@@H]4[C@@]5(C)CCCNC(C)(C)[C@@H]5CC[C@@]4(C)[C@]2(C)CC3)cc1 | inactive |
| COC1C(O)CC(OC2CC(OC3CC(O[C@@H]4C(=O)c5c(cc6cc(OC7CC(OC8CC(O)C(O)C(C)O8)C(O)C(C)O7)c(C)c(O)c6c5O)CC4[C@H](OC)C(=O)C(C)=O)OC(C)C3O)OC(C)C2O)OC1C (stereo not given in full) | active |
| CCOC(=O)c1nnn(-c2no[n+]([O-])c2-c2ccc(OC)cc2)c1COc1cccc2cccnc12 | inactive |
| COc1cc(O)c2c(=O)c3c(CC=C(C)C)cc(OC)c(O)c3oc2c1 | inactive |
| OC1CSSC1Cn1cnc2c(Nc3ccc(OCc4cccc(F)c4)c(Cl)c3)ncnc21 (stereo not given) | active |
| CNC(=O)Nc1ccc(-c2ccc3ncnc(Nc4cccc(Cl)c4)c3c2)cc1 | inactive |
| COc1ccc(-c2cc(-c3cccnc3)nc3sc4c(N)c(C(C)=O)c(-c5ccccc5)nc4c23)cc1OC | inactive |
| Nc1ccc(-c2ccncc2)cc1NC(=O)N1CCCC1 | inactive |
| COc1ccc(C2C3=C(COC3=O)N(CCO)c3cc4c(cc32)OCO4)cc1OC (stereo not given) | inactive |
| CNCCCNc1nc2ccccc2c2c(=O)c3cc(Cl)ccc3sc12 | inactive |
| NCCCNc1nc2ccccc2c2c(=O)c3cc(Cl)ccc3sc12 | active |
| CCCc1cc(=O)oc2c(C(=O)CC(C)C)c(O)c(CC=C(C)C)c(O)c12 | inactive |
| Cc1ccc(OCCOCCOCCOCCOCCOc2ccc(C)n(O)c2=S)c(=S)n1O | inactive |
| Nc1ncccc1O | inactive |
| O=S(=O)(Nc1cc(F)cc(F)c1)c1ccc(-c2cnc(C3CC3)o2)cc1 | inactive |
| CN(C)CCCn1c2c(c3ccncc3c1=O)C(=O)c1ccccc1-2 | inactive |
| COc1ccc(Cl)cc1Nc1nc(C(F)(F)F)ccc1C(=O)N/N=C/c1ccc([N+](=O)[O-])cc1 | active |
| CC1=C2[C@@H](CC1)[C@]1(C)O[C@@](C3CCNCC3)(C[C@H]1OC(=O)CO)[C@H]2OC(=O)/C=C/c1ccccc1 | inactive |
| N#Cc1c(-c2ccc(Cl)cc2)nc(NN=Cc2ccc[nH]2)nc1N1CCOCC1 | inactive |
| C#Cc1cccc(NC(=O)C2CCCCN2C(=O)CCl)c1 (stereo not given) | inactive |
| CCSc1ccnc(N)n1 | inactive |
| CN1C(=O)N2CN3CCCN(C3)CN3C(=S)NC1C23 (stereo not given) | inactive |
| CC1(C)N=C(N)N=C(N)N1c1cc(Cl)ccc1Cl | inactive |
| COc1cc2c3c(c4c5ccccc5[nH]c4c2c(OC)c1OC)C(=O)N(CCN1CCCCC1)C3=O | active |
| CCN(CC)CCOc1ccc(C(=O)/C=C\c2ccc(Cl)cc2Cl)cc1 | inactive |
| CCN(CC)CCCNc1cc(OC)c(OC)c2cccnc12 | inactive |
| Cc1cc2oc(/C=C/c3ccccc3)cc(=O)c2c(C)c1Cl | inactive |
| COc1cc(/C=C/c2cn[nH]c2-c2ccc(C)cc2)cc(OC)c1OC | inactive |

All values here come from PubChem BioAssay (NCI).
